System: 276233-004-R-J1-PDC KRAS spheroids with HUVEC/MSC, viability;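 further: cells exposed to agents for seven days before viability read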
test.details: Anticancer human tumor 276233-004-R-J1-PDC patient-derived colon adenocarcinoma cell line growth inhibition [KRAS2]
particulars: curve of compound
Below, each entry is listed with its recorded IC50.

# annotated cases, reported IC50 shown
molecule: CN(C)C/C=C/C(=O)Nc1cc2c(Nc3ccc(F)c(Cl)c3)ncnc2cc1O[C@H]1CCOC1
experimental.system: 276233-004-R-J1-PDC KRAS spheroids with HUVEC/MSC, viability;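 further: cells exposed to agents for seven days before viability read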
IC50: > 0.1 µM

molecule: CC1OCC2(CCN(c3cnc(Sc4ccnc(N)c4Cl)c(N)n3)CC2)C1N (stereo not given)
experimental.system: 276233-004-R-J1-PDC KRAS spheroids with HUVEC/MSC, viability;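 further: cells exposed to agents for seven days before viability read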
IC50: > 10 µM

molecule: COC(=O)c1ccc2c(C(=Nc3ccc(N(C)C(=O)CN4CCN(C)CC4)cc3)c3ccccc3)c(O)[nH]c2c1
experimental.system: 276233-004-R-J1-PDC KRAS spheroids with HUVEC/MSC, viability;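 further: cells exposed to agents for seven days before viability read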
IC50: > 10 µM

Reported IC50 of O=C(c1cc(Cc2n[nH]c(=O)c3ccccc23)ccc1F)N1CCN(C(=O)C2CC2)CC1 : > 10 µM

For record CCN1CCN(Cc2ccc(Nc3ncc(F)c(-c4cc(F)c5nc(C)n(C(C)C)c5c4)n3)nc2)CC1 the listed IC50 is > 1 µM
